Task for the reader: assign each of the following binders its reported neutralisation IC50, WT (293TAce2).
biological target: SARS-CoV-2 Wuhan-Hu-1 NTD (SARS-CoV-2, UniProt P0DTC2 14-307); assay: cell-based or functional assay

Please review the following examples before continuing.
{"binder": "JN008 (antibody, V domains shown) VH: EVQLVESGGDLIQPGGSLRLSCAASGFTVSSNYMNWVRQAPGKGLEWVSIIYSGGSTFYADSVKGRFTISRDNSKNTLYLQMNSLRVEDTATYFCARSYGDYYFDSWGQGTLVTVSS VL: EIVLTQSPATLSLSPGERATLSCRASQSVSSYLAWYQQKPGQAPRLLIYDASNRATGIPARFSGSGSGTDFTLTISSLEPEDFAVYYCQQRSNWPPSFTFGPGTKVDIK", "neutralisation IC50, WT (293TAce2)": "> 1 µg/mL"}
{"binder": "JN236 (antibody, V domains shown) VH: QVQLQESGPRLVKPSETLSLTCTVSGGSINDYYWSWIRQPPGKGLEYLGYIYYTGTTNYNPSLQSRLTMSVDTSKNQFSLKVNYVSAADTAVYYCARHSTGGSYPLDSWGRGILVTVSS VL: DIVMTQSPLTLPVTPGEPASISCRSSQSLLHSNGHNYVDWYLQKPGQSPQLLIHLGSNRASGVPDRFSGSGSGTDFTLKISRVEAEDVGVYFCMQALQSRTFGQGTKVEIK", "neutralisation IC50, WT (293TAce2)": "> 1 µg/mL"}

Field: next binder
IN: Item under review: JN131 (antibody, V domains shown) VH: EVQLVESGGGLVKPGGSLRLSCAASGFTFNSYSMNWVRQAPGKGLEWVSSISSSSNFIYYADSVKGRFTISRDNAKNSLYLQMNSLRAEDTAMYYCARDPGYRSSWFEVYYFDYWGPGTLVTVSS VL: QSALTQPASVSGSPGQSITISCTGTSSDVGSYNLVSWYQQHPGKAPKLVIYEVTKRPSGVSNRFSGSKSGNTASLTISGLQAEDEADYYCCSYGGSTTSPYVFGTGTKVTVL . Reported neutralisation IC50, WT (293TAce2)?
OUT: > 1 µg/mL
